# Assay Overview: Particle size and PDI of nucleic acid lipid nanoparticle preparations by dynamic light scattering
# Format: physicochemical
# Reported Conditions: DMG-PEG2000:DSPC:Chol:compound 1.40:11.15:38.95:48.50, N/P 30
In this section we review reported PDI values for a set of compounds.
Measured Quantity: PDI

Compound	Experimental Value
CCCCCCCCCCOC(=O)C(O)CN(CCCN(C)CCCN(CC(O)C(=O)OCCCCCCCCCC)CC(O)C(=O)OCCCCCCCCCC)CC(O)C(=O)OCCCCCCCCCC (centres unmarked) [Compound L0313]	0.18
CCCCCCCCCCCCNCC(O)CN(CCN(CCN(CC(O)CNCCCCCCCCCCCC)CC(O)C(=O)NCCCCCCCCCCCC)CC(O)C(=O)NCCCCCCCCCCCC)CC(O)C(=O)NCCCCCCCCCCCC (centres unmarked) [Compound L0332]	0.18
CCCC/C=C\CCOCOCCCCOC(=O)C(O)CN(CCN(C)CCN(CC(O)C(=O)OCCCCOCOCC/C=C\CCCC)CC(O)C(=O)OCCCCOCOCC/C=C\CCCC)CC(O)C(=O)OCCCCOCOCC/C=C\CCCC (centres unmarked) [Compound L0335]	0.19
CCCCCCC(CCCCCC)C(=O)OCCCCOC(=O)C(O)CN(CCCN(C)CCCN(CC(O)C(=O)OCCCCOC(=O)C(CCCCCC)CCCCCC)CC(O)C(=O)OCCCCOC(=O)C(CCCCCC)CCCCCC)CC(O)C(=O)OCCCCOC(=O)C(CCCCCC)CCCCCC (centres unmarked) [Compound L0294]	0.13
CCCCCCCCCCCCOC(=O)C(O)CN(C)CCCN(C)CCCN(C)CC(O)C(=O)OCCCCCCCCCCCC (centres unmarked) [Compound L0310]	0.22

* * *

# Assay Overview: Particle size and PDI of nucleic acid lipid nanoparticle preparations by dynamic light scattering
# Type: physicochemical
# Reported Conditions: DMG-PEG2000:DSPC:Chol:compound 1.40:11.15:38.95:48.50, N/P 20
Just a reminder that ties go to no: only Particle size (nm) strictly below 200 nm counts as yes.

Molecule	Assigned Class
CCCCCCCCCCCCOC(=O)C(O)CN(CCCCCN(CC(O)C(=O)OCCCCCCCCCCCC)CC(O)C(=O)OCCCCCCCCCCCC)CC(O)C(=O)OCCCCCCCCCCCC (stereo not drawn)	yes
CCCCCCCCCCOC(=O)C(O)CN(CCOCCOCCN(CC(O)C(=O)OCCCCCCCCCC)CC(O)C(=O)OCCCCCCCCCC)CC(O)C(=O)OCCCCCCCCCC (stereo not drawn)	no
CCCCCCOCOCCCCCCOC(=O)C(O)CN(CCOCCN(CC(O)C(=O)OCCCCCCOCOCCCCCC)CC(O)C(=O)OCCCCCCOCOCCCCCC)CC(O)C(=O)OCCCCCCOCOCCCCCC (stereo not drawn)	yes
CCCCCCCCCCOC(=O)C(O)CN(CCOCCN(CC(O)C(=O)OCCCCCCCCCC)CC(O)C(=O)OCCCCCCCCCC)CC(O)C(=O)OCCCCCCCCCC (stereo not drawn)	no
CCCCCCOC(C)OCCCCCCOC(=O)C(O)CN(C)CCN(C)CCN(C)CC(O)C(=O)OCCCCCCOC(C)OCCCCCC (stereo not drawn)	yes
CCCCCCCCCCNC(=O)C(O)CN(CCCCCCCN(CC(O)C(=O)NCCCCCCCCCC)CC(O)C(=O)NCCCCCCCCCC)CC(O)C(=O)NCCCCCCCCCC (stereo not drawn)	yes
